Recorded values, source patent US7524853B2.

Hi there, I'd appreciate the recorded inhibition at 10 µM for every entry that follows.
Target: 17β-hydroxysteroid dehydrogenase type 1 (17β-HSD type 1) (Homo sapiens, UniProt P14061)
Construct: expressed in transfected cells; host or cells: MCF-7
Sequence (P14061 whole entry): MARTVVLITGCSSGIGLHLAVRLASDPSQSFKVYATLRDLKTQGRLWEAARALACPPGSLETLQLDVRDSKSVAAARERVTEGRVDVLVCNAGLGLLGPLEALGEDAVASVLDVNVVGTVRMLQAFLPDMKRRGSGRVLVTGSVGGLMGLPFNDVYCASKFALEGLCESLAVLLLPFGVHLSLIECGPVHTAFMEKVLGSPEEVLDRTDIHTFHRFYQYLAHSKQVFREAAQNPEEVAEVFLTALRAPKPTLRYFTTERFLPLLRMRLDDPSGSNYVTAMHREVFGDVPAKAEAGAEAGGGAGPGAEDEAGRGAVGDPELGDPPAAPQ
Test: Inhibition of 17β-HSD type 1 in MCF-7 cells stably expressing the isoenzyme (tritium labeled estrone conversion, HPLC)
Type: cell-based
Settings: MCF7; 10 μM test compound; MCF-7 cells expressing 17β-HSD type 1; 2 nM tritium labeled estrone; read-out: % Inhibition HSD1 10 μM
// return numeric value only (unit: %, not printed)

Can you look up the measured inhibition at 10 µM of `CC(=O)OCc1nc2sc3c(c2c(=O)n1-c1ccccc1)CCCC3` for me?
13.2

And `COc1ccc(-c2nc3sc4c(c3c(=O)n2Cc2ccccc2)CCC(Br)(Br)C4=O)cc1` ?
12.5

And COCCn1c(-c2cccs2)nc2sc3c(c2c1=O)CCC(Br)C3=O (stereo not shown) ?
44.1

And `COC(=O)c1nc2sc3c(c2c(=O)n1Cc1ccccc1)CCCC3=O` ?
86.6

And `COCCn1c(-c2cc(OC)c(OC)c(OC)c2)nc2sc3c(c2c1=O)CCCC3=O` ?
20.7

And `COc1cccc(-c2nc3sc4c(O)cccc4c3c(=O)n2Cc2ccccc2)c1` ?
26.3

And `O=c1c2c3c(sc2nc(-c2ccccc2)n1Cc1ccccc1)CCCC3` ?
33.2

And `COc1cc(-c2nc3sc4c(OC(C)=O)cccc4c3c(=O)n2Cc2ccccc2)cc(OC)c1OC` ?
76.7

And `CCCc1nc2sc3c(O)cccc3c2c(=O)n1Cc1ccc(Br)o1` ?
61.2

And `CCCCn1c(-c2cccs2)nc2sc3c(c2c1=O)CCCC3=O` ?
7.9

And COc1cc(-c2nc3sc4c(c3c(=O)n2Cc2ccccc2)CC(C)CC4=O)cc(OC)c1OC (stereo not shown) ?
21.6

And `COc1ccc(-c2nc3sc4c(c3c(=O)n2-c2ccccc2)CCCC4)cc1` ?
38.1

And COc1cc(-c2nc3sc4c(c3c(=O)n2Cc2ccccc2)C(C)CC(Br)C4=O)c(Br)c(OC)c1OC (stereo not shown) ?
31.2

And COc1cc(-c2nc3sc4c(O)cccc4c3c(=O)n2CC2CCCO2)c(Cl)c(OC)c1OC (stereo not shown) ?
81

And COc1cc(-c2nc3sc4c(c3c(=O)n2CC2CCCO2)CCCC4=O)cc(OC)c1OC (stereo not shown) ?
84.7

And `CCCc1nc2sc3c(c2c(=O)n1Cc1ccccc1OC)CCCC3` ?
27.2

And `Cc1nc2sc3c(c2c(=O)n1-c1ccccc1)CCC(Br)(Br)C3=O` ?
-18.3

And `CCCc1nc2sc3c(O)cccc3c2c(=O)n1Cc1cc(Br)ccc1O` ?
66.7

And `COc1ccc(-c2nc3sc4c(c3c(=O)n2Cc2ccccc2)CCCC4)cc1` ?
34.5
